Cited source for all entries: patent US11377425B1

# targetUnderTest: UniProt:Q16552
# procedureDetails: IL-8 release assay in human epithelial keratinocytes adult (HEKa)
# runParameters: HEKa cells, 3 ng/mL HEK-human IL-17AA + 10 ng/mL human TNFalpha; read-out: Rel EC50 IL-8 release assay
metricName: EC50

Take a look at these entries with their results.
Cc1n[nH]c(C)c1-c1ccc(NC(=O)[C@@H](NC(=O)c2ccnn2CCN(C)C)C(C2CC2)C2CC2)cc1 [Example 131] | 0.1 to 1 µM
Cc1n[nH]c(C)c1-c1ccc(NC(=O)C(NC(=O)c2ccnn2CCC(C)O)C2CCCCCCC2)cc1 (single isomer, unassigned) [Example 144] | < 0.1 µM
Cc1n[nH]c(C)c1-c1ccc(NC(=O)[C@@H](NC(=O)c2ccnn2C(C)C)[C@@H](C)C2CC2)cc1 [Example 283] | 0.1 to 1 µM

Could you now consider this next molecule?
Challenge: Record request: EC50 value, item Cc1n[nH]c(C)c1-c1ccc(NC(=O)[C@@H](NC(=O)C2CCC2)C(C2CC2)C2CC2)cc1 [Example 169]
Response given: > 1 µM

---

Property: EC50; scope: individual compounds
# targetUnderTest: human IL-17AA (Homo sapiens, UniProt Q16552)
# Sequence (Q16552 24-155): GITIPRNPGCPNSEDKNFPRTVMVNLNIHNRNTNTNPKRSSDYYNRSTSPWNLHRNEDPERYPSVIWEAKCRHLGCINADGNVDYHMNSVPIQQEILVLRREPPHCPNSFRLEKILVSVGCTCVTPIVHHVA
# procedureDetails: IL-8 release assay in human epithelial keratinocytes adult (HEKa)
# runParameters: HEKa cells, 3 ng/mL HEK-human IL-17AA + 10 ng/mL human TNFalpha; read-out: Rel EC50 IL-8 release assay

A selection of reference data follows.
Cn1cnnc1-c1ccc(NC(=O)[C@@H](NC(=O)c2ccnn2C)C(c2ccccc2)c2ccccc2)cc1 [Example 354] | > 1000 nM
Cn1cncc1-c1ccc(NC(=O)C(NC(=O)OC(C)(C)C)C(c2ccccc2)C2CCC2)cc1 (single isomer, unassigned) [Example 310] | > 1000 nM
CCn1nccc1C(=O)N[C@H](C(=O)Nc1ccc(-c2c(C)n[nH]c2C)cc1)C1CCC2(CC1)CC2 [Example 264] | 100 to 1000 nM
Cc1n[nH]c(C)c1-c1ccc(NC(=O)C(NC(=O)c2ccnn2C)C(C)c2ccccc2)cc1 (single isomer, unassigned) [Example 235] | > 1000 nM
Cc1n[nH]c(C)c1-c1ccc(NC(=O)[C@@H](NC(=O)c2ccnn2C)C(C)CC2CC2)cc1 (single isomer, unassigned) [Example 159] | 100 to 1000 nM

Challenge: What value of EC50 on human IL-17AA (Homo sapiens, UniProt Q16552) does Cc1[nH]nc(CO)c1-c1ccc(NC(=O)[C@@H](NC(=O)OC(C)(C)C)C2CCCCC2)cc1 [Example 438] have?
Response given: 100 to 1000 nM

Challenge: Give the reported EC50 for Cc1n[nH]c(C)c1-c1ccc(NC(=O)[C@@H](NC(=O)c2cnnn2C)C2CCCCCC2)cc1 [Example 62] (system: human IL-17AA (Homo sapiens, UniProt Q16552)).
Response given: 100 to 1000 nM

Challenge: # query: EC50 | item Cc1n[nH]c(CO)c1-c1ccc(NC(=O)[C@@H](NC(=O)c2ccnn2C)C2CCCCC2)cc1 [Example 445] | system: human IL-17AA (Homo sapiens, UniProt Q16552)
Response given: 100 to 1000 nM

Challenge: Recall the recorded EC50 for Cc1n[nH]c(C)c1-c1ccc(NC(=O)[C@@H](NC(=O)c2ccnn2C(C)C)C(C2CC2)C2CC2)cc1 (single isomer, unassigned) [Example 32] with human IL-17AA (Homo sapiens, UniProt Q16552) and state it.
Response given: < 100 nM

Challenge: GET /values?readout=EC50&system=human IL-17AA (Homo sapiens, UniProt Q16552)&item= Cc1ncn(C)c1-c1ccc(NC(=O)[C@@H](NC(=O)c2ccnn2C)C2CCCCCC2)cc1 [Example 336]
Response given: 100 to 1000 nM

Challenge: Item Cc1n[nH]c(C)c1-c1ccc(NC(=O)C(NC(=O)c2ccnn2C(C)C)C2CCCCCCC2)cc1 (single isomer, unassigned) [Example 152] with human IL-17AA (Homo sapiens, UniProt Q16552) - EC50?
Response given: < 100 nM

---

Each record here notes measured pEC50.
# targetUnderTest: UniProtKB Q16552
# procedureDetails: IL-8 release assay in human epithelial keratinocytes adult (HEKa)
# runParameters: HEKa cells, 3 ng/mL HEK-human IL-17AA + 10 ng/mL human TNFalpha; read-out: Rel EC50 IL-8 release assay
pEC50: −log10 of the molar value.

Example molecules with recorded pEC50:
Cc1n[nH]c(C)c1-c1ccc(NC(=O)C(NC(=O)c2ccnn2C)C(C)c2ccccc2)cc1 (single isomer, unassigned) [Example 237] | < 6.00
Cc1n[nH]c(C)c1-c1ccc(NC(=O)[C@@H](NC(=O)c2ccnn2C(C)C)[C@@H]2CC3(CC3)CCC2(F)F)cc1 | > 7.00
Cc1n[nH]c(C)c1-c1ccc(NC(=O)[C@@H](NC(=O)c2ccnn2C)C2[C@H]3CCC[C@@H]23)cc1 (stereo partly drawn) | < 6.00

Challenge: Give its pEC50 value. Item: Cc1n[nH]c(C)c1-c1ccc(NC(=O)[C@@H](NC(=O)c2cnnn2C(C)C)C(C2CC2)C2CC2)cc1
Response given: > 7.00

Challenge: I would be grateful if you could share the reported pEC50 for Cc1n[nH]c(C)c1-c1ccc(NC(=O)[C@@H](NC(=O)c2ccnn2C)[C@H]2CCc3ccccc32)cc1 .
Response given: > 7.00

Challenge: May I ask what pEC50 has been recorded for CCC(c1ccccc1)C(NC(=O)c1ccnn1C)C(=O)Nc1ccc(-c2c(C)n[nH]c2C)cc1 (single isomer, unassigned) [Example 228] ?
Response given: 6.00 to 7.00

---

# targetUnderTest: human IL-17AA (Homo sapiens, UniProt Q16552)
# procedureDetails: IL-8 release assay in human epithelial keratinocytes adult (HEKa)
# runParameters: HEKa cells, 3 ng/mL HEK-human IL-17AA + 10 ng/mL human TNFalpha; read-out: Rel EC50 IL-8 release assay
Here, each record is paired with measured EC50 data.

Cc1n[nH]c(C)c1-c1ccc(NC(=O)C(NC(=O)c2ccnn2C(C)C(C)O)C(C2CC2)C2CC2)cc1 (mixture of isomers) | > 1000 nM
Cc1n[nH]c(C)c1-c1ccc(NC(=O)[C@@H](NC(=O)N(C)CCO)C2CCCCC2)cc1 | > 1000 nM
Cc1n[nH]c(C)c1-c1ccc(NC(=O)[C@H](CC2CCCCC2)NC(=O)c2ccnn2C)cc1 | 100 to 1000 nM
CCN(CC)C(=O)N[C@H](C(=O)Nc1ccc(-c2c(C)n[nH]c2C)cc1)C1CCCCC1 | > 1000 nM
Cc1[nH]nc(C(C)C)c1-c1ccc(NC(=O)[C@@H](NC(=O)c2ccnn2C(C)C)C(C2CC2)C2CC2)cc1 | < 100 nM
Cc1n[nH]c(C)c1-c1ccc(NC(=O)[C@@H](NC(=O)c2cnnn2C(C)C)C2CCCCC2)cc1 | 100 to 1000 nM
Cc1n[nH]c(C)c1-c1ccc(NC(=O)C(NC(=O)c2ccnn2C(C)C)C2CCC(C)(C)C2)cc1 (stereo not shown) | 100 to 1000 nM
Cc1n[nH]c(C)c1-c1ccc(NC(=O)[C@@H](NC(=O)c2ccnn2C)C(C)CC2CC2)cc1 (single isomer, unassigned) [Example 160] | 100 to 1000 nM

Challenge: Value wanted: EC50 (human IL-17AA (Homo sapiens, UniProt Q16552)) of entry Cc1n[nH]c(C)c1-c1ccc(NC(=O)[C@@H](NC(=O)c2ccnn2C)C(C)C)cc1
Response given: > 1000 nM

Challenge: Which measured EC50 belongs to Cc1n[nH]c(C)c1-c1ccc(NC(=O)[C@@H](NC(=O)Cc2ccc(N(C)C)cc2)C2CCCCC2)cc1 , tested on human IL-17AA (Homo sapiens, UniProt Q16552)?
Response given: 100 to 1000 nM

---

Quick reference for pEC50 among some compounds
# targetUnderTest: human IL-17AA (Homo sapiens, UniProt Q16552)
# Construct: host or cells: HEK (human embryonic kidney) cells
# procedureDetails: IL-8 release assay in human epithelial keratinocytes adult (HEKa)
# Format: cell-based
# runParameters: HEKa cells, 3 ng/mL HEK-human IL-17AA + 10 ng/mL human TNFalpha; read-out: Rel EC50 IL-8 release assay
pEC50: −log10 of the molar value.

As a guide, the following entries are already answered.
Cc1n[nH]c(C(C)O)c1-c1ccc(NC(=O)[C@@H](NC(=O)C2(F)CC2)C(c2ccccc2)c2ccccc2)cc1 (stereo partly shown) [Example 442] | 6.00 to 7.00
Cc1n[nH]c(C)c1-c1ccc(NC(=O)[C@@H](NC(=O)c2ccnn2C)C2CCCCC2)cc1O [Example 412] | > 7.00
Cn1cncc1-c1ccc(NC(=O)[C@@H](NC(=O)c2ccnn2C)[C@@H]2CCc3ccccc32)cc1 [Example 376] | < 6.00
Cc1ncn(C)c1-c1ccc(NC(=O)C(NC(=O)c2ccnn2C)C(C2CC2)C2CC2)cc1 (stereo not shown) [Example 332] | 6.00 to 7.00
CCn1nccc1C(=O)N[C@H](C(=O)Nc1ccc(-c2c(C)n[nH]c2C)cc1)C(C1CCC1)C1CCC1 [Example 36] | > 7.00
Cc1n[nH]c(C)c1-c1ccc(NC(=O)[C@@H](NC(=O)c2ccnn2C)C2CCCC2(C)C)cc1 (stereo partly shown) [Example 231] | > 7.00
CCn1nccc1C(=O)N[C@H](C(=O)Nc1ccc(-n2cnc(C)c2C)cc1)C(C1CC1)C1CC1 [Example 369] | 6.00 to 7.00
Cn1cncc1-c1ccc(NC(=O)C(NC(=O)OC(C)(C)C)C(c2ccccc2)C2CCC2)cc1 (single isomer, unassigned) [Example 311] | < 6.00
Cc1[nH]nc(C2CC2)c1-c1ccc(NC(=O)[C@@H](NC(=O)c2ccnn2[C@@H](C)CO)C(C2CC2)C2CC2)cc1 [Example 389] | > 7.00
Cc1n[nH]c(C)c1-c1ccc(NC(=O)[C@@H](NC(=O)c2ccnn2C(C)C)C(C)C2CCC2)cc1 (single isomer, unassigned) [Example 191] | 6.00 to 7.00

Challenge: pEC50 lookup needed for Cc1n[nH]c(C)c1-c1ccc(NC(=O)[C@@H](NC(=O)c2ccnn2C(C)CO)C(C2CC2)C2CC2)cc1 (stereo partly shown) [Example 120] , thanks.
Response given: 6.00 to 7.00

Challenge: Returns the measured pEC50 for the input compound. Input: Cn1cncc1-c1ccc(NC(=O)[C@@H](NC(=O)c2ccnn2C)[C@@H]2CCCc3ccccc32)cc1 [Example 375]
Response given: < 6.00

Challenge: // lookup pEC50 for CC[C@H](C)[C@H](NC(=O)c1ccnn1C(C)C)C(=O)Nc1ccc(-c2c(C)n[nH]c2C)cc1 [Example 110]
Response given: 6.00 to 7.00

Challenge: Record request: pEC50 value, item Cn1cncc1-c1ccc(NC(=O)[C@@H](NC(=O)OC(C)(C)C)C2CCCC2)cc1 [Example 98]
Response given: < 6.00

Challenge: Entry Cc1n[nH]c(C)c1-c1ccc(NC(=O)[C@@H](NC(=O)N2CCCCC2)C2CCCCC2)cc1 [Example 472] has what pEC50?
Response given: < 6.00
